This collection of values is drawn from paper PMC4472604.

As shown below, each of these binders has a reported Ki value.
# measurement_target: T1, KOR (Mus musculus), P33534
# T1 chain: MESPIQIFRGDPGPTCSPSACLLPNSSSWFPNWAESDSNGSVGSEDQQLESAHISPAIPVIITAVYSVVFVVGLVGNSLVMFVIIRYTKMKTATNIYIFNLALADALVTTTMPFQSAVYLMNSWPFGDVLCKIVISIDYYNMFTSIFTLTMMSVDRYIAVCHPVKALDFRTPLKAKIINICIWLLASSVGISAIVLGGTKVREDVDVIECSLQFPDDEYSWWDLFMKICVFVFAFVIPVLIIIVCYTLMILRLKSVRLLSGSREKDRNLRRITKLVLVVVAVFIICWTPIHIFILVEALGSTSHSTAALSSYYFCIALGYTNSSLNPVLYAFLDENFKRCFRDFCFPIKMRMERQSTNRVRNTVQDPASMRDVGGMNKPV
# assay_remarks: radioligand
# assay_setup: modification not given
measure_name: Ki

In [3]: df
Out[3]:
                            binder  experimental_value
0              YAFEIIG [peptide 1]           > 1000 nM
1  YAFEVVG [[D-Ala2]deltorphin II]           > 1000 nM
